meta.source: the kinase profiling compilation of Christmann-Franck et al. (2016)

# TARGET OR TEST SYSTEM: UniProtKB Q04771
# Sequence (Q04771 whole entry, looked up): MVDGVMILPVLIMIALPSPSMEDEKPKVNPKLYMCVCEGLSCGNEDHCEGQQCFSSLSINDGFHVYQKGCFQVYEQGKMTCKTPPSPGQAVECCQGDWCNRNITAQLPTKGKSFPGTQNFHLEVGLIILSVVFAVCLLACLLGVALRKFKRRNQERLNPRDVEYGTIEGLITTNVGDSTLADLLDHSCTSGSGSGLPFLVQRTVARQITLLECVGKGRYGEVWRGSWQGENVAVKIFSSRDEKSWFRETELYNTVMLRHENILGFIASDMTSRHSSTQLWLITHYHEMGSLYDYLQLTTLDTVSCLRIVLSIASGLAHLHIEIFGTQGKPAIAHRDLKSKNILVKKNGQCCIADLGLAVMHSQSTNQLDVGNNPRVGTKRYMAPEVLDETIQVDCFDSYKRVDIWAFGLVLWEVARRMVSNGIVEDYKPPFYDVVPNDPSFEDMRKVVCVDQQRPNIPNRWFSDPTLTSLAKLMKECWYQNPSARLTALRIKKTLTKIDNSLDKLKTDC
# ASSAY NAME: radiometric filter-binding kinase assay, Kinase HotSpot
# ASSAY CONDITIONS: compound 0.5 µM; ATP 10 µM
PROPERTY: residual activity (%)
Reply with just the number (in %).

| COMPOUND | QUANTITY UNIT | residual activity |
| --- | --- | --- |
| C#Cc1cccc(Nc2ncnc3cc(OCCOC)c(OCCOC)cc23)c1 | % | 101 |
| Nc1n[nH]c2nnc(-c3c(-c4ccccc4)nn4ccccc34)cc12 | % | 107 |
| CCN1/C(=C/C(C)=O)Sc2ccc(OC)cc21 | % | 88.1 |
| Cc1cc2ncc(-c3ccccc3)nc2cc1C | % | 91.8 |
| COc1ccc(-c2cnc3c(-c4ccsc4)cnn3c2)cc1 | % | 91.1 |

Q. Item under review: `CCCNC(=O)Nc1ccc(Oc2ncnc3cc(OC)c(OC)cc23)cc1Cl` . Reported residual activity?
A. 101

Q. Item under review: `O=c1cc(-c2cccc3c2Sc2ccccc2S3)oc(N2CCOCC2)c1` . Reported residual activity?
A. 97.5

* * *

# TARGET OR TEST SYSTEM: PLK1 (human)
# ASSAY NAME: radiometric filter-binding kinase assay, Kinase HotSpot
# ASSAY CONDITIONS: compound 0.5 µM; ATP 10 µM
Reported values of residual activity for individual entries

Known residual activity results, listed for orientation:
| SMILES STRING | PROPERTY | ASSAY RESULT |
| --- | --- | --- |
| CC(C)[C@H](CO)Nc1nc(Nc2cccc(Cl)c2)c2ncn(C(C)C)c2n1 | residual activity | 89.2% |
| Nc1n[nH]c2nnc(-c3c(-c4ccccc4)nn4ccccc34)cc12 | residual activity | 98.1% |

Q. Item under review: `O=C1Nc2cc(Br)ccc2/C1=C1/Nc2ccccc2/C1=N\O` . Reported residual activity?
A. 101%

Q. Item under review: `O=C(Nc1ccc(Cl)cc1)c1ccccc1NCc1ccncc1` . Reported residual activity?
A. 103%

* * *

# TARGET OR TEST SYSTEM: STK10 (human) (UniProt O94804)
# Sequence (O94804 whole entry, looked up): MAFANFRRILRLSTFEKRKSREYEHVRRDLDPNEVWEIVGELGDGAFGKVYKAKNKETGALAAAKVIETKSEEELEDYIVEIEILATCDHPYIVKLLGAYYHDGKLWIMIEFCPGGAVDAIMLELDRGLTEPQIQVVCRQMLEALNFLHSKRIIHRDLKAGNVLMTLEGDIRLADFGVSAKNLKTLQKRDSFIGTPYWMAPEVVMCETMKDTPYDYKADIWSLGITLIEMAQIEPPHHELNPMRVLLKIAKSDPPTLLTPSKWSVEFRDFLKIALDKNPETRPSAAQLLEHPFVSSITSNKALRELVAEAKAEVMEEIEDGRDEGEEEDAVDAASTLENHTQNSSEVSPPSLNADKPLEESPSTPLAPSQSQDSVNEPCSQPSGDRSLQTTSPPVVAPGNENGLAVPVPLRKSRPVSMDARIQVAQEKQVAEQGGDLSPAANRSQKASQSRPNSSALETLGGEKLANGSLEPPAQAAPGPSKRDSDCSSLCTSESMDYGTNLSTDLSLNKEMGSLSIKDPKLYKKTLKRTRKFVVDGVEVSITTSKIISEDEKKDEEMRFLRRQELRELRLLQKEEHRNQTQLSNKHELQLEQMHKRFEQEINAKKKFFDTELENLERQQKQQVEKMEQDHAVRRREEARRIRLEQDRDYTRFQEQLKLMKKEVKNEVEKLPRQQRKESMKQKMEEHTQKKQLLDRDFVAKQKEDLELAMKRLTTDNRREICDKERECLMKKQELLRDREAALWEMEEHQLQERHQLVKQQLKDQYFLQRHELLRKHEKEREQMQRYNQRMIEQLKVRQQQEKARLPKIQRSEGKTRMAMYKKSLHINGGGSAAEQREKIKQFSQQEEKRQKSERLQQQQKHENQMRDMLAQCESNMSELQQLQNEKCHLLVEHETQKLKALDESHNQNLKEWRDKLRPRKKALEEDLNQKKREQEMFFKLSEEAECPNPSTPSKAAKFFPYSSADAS
# ASSAY NAME: radiometric filter-binding kinase assay, Kinase HotSpot
# ASSAY CONDITIONS: compound 0.5 µM; ATP 10 µM
PROPERTY: residual activity

Known residual activity results, listed for orientation:
| COMPOUND | residual activity |
| --- | --- |
| COc1cc2nccc(Oc3ccc(NC(=S)NC(=O)c4ccccc4C)cc3)c2cc1OC | 11.9% |
| O=C(NC(NC(=S)Nc1ccc(F)c([N+](=O)[O-])c1)C(Cl)(Cl)Cl)C(c1ccccc1)c1ccccc1 (centres undefined) | 108% |
| Nc1nc(Nc2ccc(S(N)(=O)=O)cc2)nn1C(=S)Nc1c(F)cccc1F | 3.96% |
| Cc1ccc(NC(=O)c2ccc(CN3CCN(C)CC3)cc2)cc1Nc1nc(-c2cccnc2)cs1 | 93.8% |

Q. Item under review: `COc1ccc(-c2cnc3c(-c4ccsc4)cnn3c2)cc1` . Reported residual activity?
A. 81.6%

Q. Item under review: `Nc1n[nH]c2nnc(-c3c(-c4ccccc4)nn4ccccc34)cc12` . Reported residual activity?
A. 70.9%

Q. Item under review: `Cc1cc2ncc(-c3ccccc3)nc2cc1C` . Reported residual activity?
A. 90.7%

Q. Item under review: CS(=O)c1ccc(-c2nc(-c3ccc(F)cc3)c(-c3ccncc3)[nH]2)cc1 (centres undefined) . Reported residual activity?
A. 89.1%

Q. Item under review: `Clc1ccc(Nc2nnc(Cc3ccncc3)c3ccccc23)cc1` . Reported residual activity?
A. 96.3%
